Cited source for all entries: paper PMC11125126

- System: Escherichia coli
- experimentNotes: MIC/MBC by broth dilution, pure ILs
- Format: cell-based
- experimentalSetup: 24 h, 10^6 CFU/mL, read-out: MBC
Rule: MBC below 80 µg/mL gives MET, anything at or above gives NOT MET.

{"compound": "CCCCCCCCC[n+]1ccn(C)c1.F[B-](F)(F)F [C9mimBF4]", "targetOrTestSystem": "Escherichia coli", "labelValue": "NOT MET"}
{"compound": "CCCCCCCCCCn1cc[n+](C)c1.F[B-](F)(F)F [C10mimBF4]", "targetOrTestSystem": "Escherichia coli", "labelValue": "NOT MET"}
{"compound": "CCCCCCCCCCCCCCCCCC[n+]1ccn(C)c1.F[B-](F)(F)F [C18mimBF4]", "targetOrTestSystem": "Escherichia coli", "labelValue": "NOT MET"}
{"compound": "CCCCCCCCCCCCCC[n+]1ccn(C)c1.F[B-](F)(F)F [C14mimBF4]", "targetOrTestSystem": "Escherichia coli", "labelValue": "MET"}
{"compound": "CCCCCCCCCCCCCCCC[n+]1ccn(C)c1.F[B-](F)(F)F [C16mimBF4]", "targetOrTestSystem": "Escherichia coli", "labelValue": "MET"}
{"compound": "CCCCCCCCCCCCn1cc[n+](C)c1.F[B-](F)(F)F [C12mimBF4]", "targetOrTestSystem": "Escherichia coli", "labelValue": "NOT MET"}
